Test: binders of probe aFST on microarray, primary screen, stem cell growth factor project, biochemical, small-molecule microarray, fluorescence 635/667 (AID 1086);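 note: score merges 667 nm fluorescence with signal-to-noise of each printed compound spot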
Settings: higher = more signal
metricName: composite z-score
Please give only the number in your answer, with no unit.

# composite z-score of O=C(CS)NCCCCCCNC(=O)[C@H]1C[C@H]2C(=O)NCC(=O)N2[C@H]1c1cccc(OCCO)c1 = 0.0909

Quick note, composite z-score for COC(=O)C(CC#Cc1ccc2c(c1)[C@]1(C(=O)N2)[C@H](C(N)=O)[C@H]2C(=O)O[C@H](c3ccccc3)[C@H](c3ccccc3)N2[C@@H]1c1ccccc1OCCO)C(=O)OC landed at -0.275

// composite z-score lookup, molecule = CC[C@H]1C2=C3C(CC[C@H]4C(OCc5ccc(F)cc5C(F)(F)F)OC[C@](C)([C@@H]34)N(C(=O)OC(C)(C)C)C2)C(COC(C)=O)C1COC(C)=O (stereo partly drawn) , result: 1.43

====

Biological target: Calmodulin-1 (Homo sapiens) (UniProt P0DP23)
Assay: CALM1 binders on microarrays, EGTA buffer, profiling panel, biochemical, small-molecule microarray, Cy5-labelled CALM1 (AID 1111);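 note: labelled calmodulin applied in Tris saline Tween buffer holding calcium plus EGTA and DTT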
Settings: Cy5-CALM1 binding fluorescence, higher = more signal
Form field: composite z-score (one value per entry).

Below: 3 compounds and their reported composite z-score.
Cc1ccc(S[C@]2(C(=O)NC3CC3)CC(=O)N(C3Cc4ccccc4C3)[C@@H]2c2ccc(CO)cc2I)cc1 = 2.09
[N-]=[N+]=NCc1ccccc1C[C@@]1(C(N)=O)N=C(c2ccc(OCCCO)cc2)O[C@@H]1c1ccccc1N=[N+]=[N-] = 1.09
O=C(NC1CC1)[C@@H]1c2ccccc2C(=O)N(C2CCCCC2)[C@H]1c1ccc(CO)cc1 = 0.576

Noted for C=CCNC(=O)[C@@H]1[C@H]2C(=O)O[C@H](c3ccccc3)[C@H](c3ccccc3)N2[C@H](c2ccc(O)cc2)[C@@]12C(=O)Nc1ccc(C#CC3=CCCCC3)cc12 : its composite z-score reads 1.1

Measured composite z-score of COCCOC(=O)N1C(=O)[C@@]2(c3cc(C#CCCO)ccc31)[C@H](C(=O)N1CCN(c3ncccn3)CC1)[C@H]1C(=O)O[C@H](c3ccccc3)[C@H](c3ccccc3)N1[C@@H]2c1ccc(OCCO)cc1 : 1.26

Entry under test: CS(=O)(=O)CCOC(=O)C1=CC(CCCO)=CC(C2CC2)N(Cc2sc3ccccc3c2Cl)C=C1C(=O)OCCS(C)(=O)=O (stereo not drawn) . Its composite z-score was 1.18

Input CC1(C)OB(/C=C\CC(OC(=O)c2ccncc2)c2ccccc2)OC1(C)C (stereo not drawn) . Output composite z-score: -2.58

Lab note: CCOC(=O)C[C@H]1[C@H](OC(=O)Cc2ccc3c(c2)OCO3)[C@@H](NC(=O)CC(C)C)c2cc(OCCCO)ccc2N1C(=O)c1ccc2ccccc2n1 gave composite z-score of 0.42

Consider O=C1O[C@H](c2ccccc2)[C@H](c2ccccc2)N2[C@H]1[C@@H](C(=O)O)[C@]1(C(=O)Nc3ccccc31)[C@H]2c1ccc(OCCO)cc1 . Its measured composite z-score is 1.58

The compound identified as CC(C)(C)OC(=O)CC[C@@]1(C(=O)N2CCOCC2)N=C(c2ccc(OCCCO)cc2)O[C@@H]1c1ccccc1CN=[N+]=[N-] registered its composite z-score at 2.04

Data point: Cc1ccc(S[C@]2(C(=O)NCCN3CCOCC3)CC(=O)N(C(C)C)[C@@H]2c2ccc(CO)cc2I)cc1 ; composite z-score = -1.17

C=C(COC)C(=O)CC[C@H](OC(C)=O)c1ccc(CO)o1 yielded composite z-score of 0.44

====

Target: Follistatin (Homo sapiens) (UniProt P19883)
Sequence (P19883 whole entry, looked up): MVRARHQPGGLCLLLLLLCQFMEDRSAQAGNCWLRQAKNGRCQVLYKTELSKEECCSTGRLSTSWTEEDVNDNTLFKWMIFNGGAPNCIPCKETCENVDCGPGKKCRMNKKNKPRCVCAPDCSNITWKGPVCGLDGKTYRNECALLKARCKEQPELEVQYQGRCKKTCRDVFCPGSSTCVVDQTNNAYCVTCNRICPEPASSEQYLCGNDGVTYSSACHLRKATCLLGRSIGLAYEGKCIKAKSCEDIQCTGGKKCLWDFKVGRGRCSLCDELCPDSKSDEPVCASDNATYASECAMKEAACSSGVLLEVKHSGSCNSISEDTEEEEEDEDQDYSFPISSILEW
Assay: follistatin binders on small-molecule microarrays, primary screen, biochemical, small-molecule microarray, 635/667 nm fluorescence (AID 1132)
Details: FST binding, 635 nm fluorescence, higher = more signal
Readings of composite z-score for the listed compounds
Respond using a number only.

CC(CO)N1C(=O)[C@@H]2[C@H]3C(=O)OCC=C[C@H]3OC23C=CCN(c2ccc4ccccc4c2)C(=O)[C@@H]13 (stereo partly drawn) = -2.31
COCCOC(=O)N1C(=O)[C@@]2(c3ccccc31)[C@H](C(=O)Nc1nc3ccccc3s1)[C@H]1C(=O)O[C@H](c3ccccc3)[C@H](c3ccccc3)N1[C@@H]2c1ccccc1OCCO = 1.17
CC1CC/C=C\[C@H]2OC34C=CCN(CCN5CCOCC5)C(=O)[C@H]3N(C(CO)C(C)C)C(=O)[C@@H]4C2C(=O)O1 (stereo partly drawn) = -0.277
CC[C@@H](O[Si](C#C[Si](C(C)C)(C(C)C)C(C)C)(C(C)C)C(C)C)c1cn([C@H](C)c2ccccc2)nn1 = 0.548

From here, focus on the item given below.
// COC(=O)[C@@]1(Cc2ccc(F)cc2)[C@H]2c3cc(C(=O)N4CCCC4)n(CCSCCO)c3C[C@H]2CN1C(=O)c1ccccc1 : composite z-score value = -0.16

====

Target: Homeobox protein Hox-A13 (Mus musculus) (UniProt Q62424)
Sequence (Q62424 whole entry, looked up): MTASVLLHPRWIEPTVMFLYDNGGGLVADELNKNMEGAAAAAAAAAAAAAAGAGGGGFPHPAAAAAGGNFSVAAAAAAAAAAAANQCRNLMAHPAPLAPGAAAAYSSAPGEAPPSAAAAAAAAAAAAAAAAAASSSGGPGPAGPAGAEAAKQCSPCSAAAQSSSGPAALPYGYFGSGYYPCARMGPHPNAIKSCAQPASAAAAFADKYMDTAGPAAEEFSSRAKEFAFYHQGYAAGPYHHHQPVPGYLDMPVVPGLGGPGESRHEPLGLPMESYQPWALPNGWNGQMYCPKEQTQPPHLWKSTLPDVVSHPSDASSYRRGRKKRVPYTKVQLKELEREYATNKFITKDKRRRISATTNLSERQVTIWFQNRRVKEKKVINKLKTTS
Test: inhibitors of HoxA13-DNA binding, primary screen, biochemical, fluorescence polarization, labeled oligonucleotide (AID 1185)
Conditions: 15 min, higher = more signal, called active from +8 up or from −8 down
Measured z-score by item
# print the numeric value only

C=CCNC(=O)[C@H]1[C@@H]2C(=O)O[C@@H](c3ccccc3)[C@@H](c3ccccc3)N2[C@@H](c2ccc(O)cc2)[C@]12C(=O)Nc1ccccc12 = -3.97
O=C1O[C@H](c2ccccc2)[C@H](c2ccccc2)N2[C@H]1[C@@H](C(=O)Nc1nc3ccccc3s1)[C@]1(C(=O)Nc3ccccc31)[C@H]2c1ccccc1OCCO = 2
C[C@]1(C(=O)NCC(F)(F)F)c2ccccc2C(=O)N(Cc2cc(C(F)(F)F)cc(C(F)(F)F)c2)[C@H]1c1ccc(CO)cc1 = -3.48
COCCOC(=O)N1C(=O)[C@@]2(c3cc(C#CC4=CCCCC4)ccc31)[C@H](C(=O)N1CCCCCCC1)[C@H]1C(=O)O[C@H](c3ccccc3)[C@H](c3ccccc3)N1[C@@H]2c1ccccc1OCCO = 3.21
COc1cc2c(cc1O)C(C)N(Cc1sc3ccccc3c1Cl)CC2 (stereo unspecified) = -3.39

Param item: C=CCNC(=O)[C@H]1[C@@H]2C(=O)O[C@@H](c3ccccc3)[C@@H](c3ccccc3)N2[C@@H](c2ccc(OCCO)cc2)[C@]12C(=O)N(C(=O)OCCOC)c1ccc(C#CCC(C(=O)OC)C(=O)OC)cc12 ; param system: Homeobox protein Hox-A13 (Mus musculus) (UniProt Q62424); output z-score: -0.253

====

Assay: binders of probe aFGF2 on microarray, primary screen, stem cell growth factor project, biochemical, small-molecule microarray, fluorescence 635/667 (AID 1067);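 note: measures binding of biotinylated aFGF2 protein to printed compounds on slides; z-score merges feature fluorescence and signal-to-noise across triplicate slides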
Details: higher = more signal
metricName: composite z-score
Just the number.

In the examples that follow, each entry is paired with its recorded composite z-score.
COc1ccc(C#Cc2ccc3c(c2)[C@]2(C(=O)N3)[C@H](c3ccccc3OCCO)N3[C@H](c4ccccc4)[C@H](c4ccccc4)OC(=O)[C@H]3[C@@H]2C(=O)NC[C@H](O)c2ccccc2)cc1 = -0.0628
[N-]=[N+]=NCc1ccccc1[C@H]1OC(c2ccc(OCCCO)cc2)=N[C@@]1(CCS(=O)(=O)c1ccccc1)C(=O)NCCN1CCOCC1 = 0.126

# ---- query molecule ----
Form: molecule = COc1ccc([Si](C)(C)[C@H]2[C@H](CCO)O[C@@]3(C(=O)N(Cc4ccccc4)c4ccc(NC(=O)[C@H](C)O)cc43)[C@@H]2C)cc1 ; composite z-score = -0.0653

====

Target: Calmodulin-1 (Homo sapiens) (UniProt P0DP23)
Assay: calcium-bound CALM1 binders on microarrays, profiling panel, artefact control for SMM control-protein annotation, biochemical, small-molecule microarray, Cy5-labelled CALM1, plus calcium (AID 1112);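 note: score merges spot fluorescence with signal to noise from triplicate slides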
Conditions: Cy5-CALM1 binding fluorescence, higher = more signal
metricName: composite z-score
Just the number, please, no unit attached.

C=CCNC(=O)[C@H]1[C@@H]2C(=O)O[C@@H](c3ccccc3)[C@@H](c3ccccc3)N2[C@@H](c2ccc(O)cc2)[C@]12C(=O)N(C(=O)OCCOC)c1ccc(C#Cc3ccc(OC)cc3)cc12 = -0.0807

// next item, composite z-score requested
The compound COc1cccc(C)c1NC(=O)O[C@H]1[C@H](OC(=O)Nc2ccccc2-c2ccccc2)[C@@H](OC(=O)Nc2ccccc2-c2ccccc2)[C@@H](OC)O[C@@H]1CO , tested on Calmodulin-1 (Homo sapiens) (UniProt P0DP23), showed composite z-score of -0.136

====

# key: entry, value: composite z-score
Target: E3 ubiquitin-protein ligase XIAP (Homo sapiens)
Experiment: XIAP binders, primary screen, biophysical, small-molecule microarray, fluorescence 635 nm (AID 1181);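 note: score merges 667 nm emission and signal to noise over triplicate slides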
Settings: small-molecule microarray binding, higher = more signal
Output spec: single numeric token, no unit.

Recorded results for 6 compounds are shown here.
[N-]=[N+]=NCc1ccccc1[C@H]1OC(c2ccc(OCCCO)cc2)=N[C@@]1(CCS(=O)(=O)c1ccccc1)C(=O)O = 0.273
O=C1C2C=CC(C(O)c3ccccn3)N(Nc3ccc([N+](=O)[O-])cc3)C2C(=O)N1c1ccccc1 (centres undefined) = 0.359
COCCCNC(=O)[C@@]1(CCC(=O)OC(C)(C)C)N=C(c2ccc(OCCCO)cc2)O[C@H]1c1ccccc1 = -0.171
COCCOC(=O)N1C(=O)[C@@]2(c3cc(C#CC4=CCCCC4)ccc31)[C@H](c1ccc(O)cc1)N1[C@H](c3ccccc3)[C@H](c3ccccc3)OC(=O)[C@H]1[C@@H]2C(=O)N1CCc2cc(OC)c(OC)cc2C1 = -0.0434
CC1C2C(CCCO)=CC(C3C(=O)N(C)C(=O)C23)N1Cc1cccc(OC(F)(F)F)c1 (centres undefined) = 0.245
C=C(CCCC)C(=O)CC[C@@H](OC(C)=O)c1ccc(OCCO)cc1 = -0.074

From here, focus on the item given below.
Reported composite z-score for O=C1O[C@@H](c2ccccc2)[C@@H](c2ccccc2)N2[C@@H](c3ccc(OCCO)cc3)[C@]3(C(=O)Nc4ccc(C#CC5=CCCCC5)cc43)[C@@H](C(=O)Nc3nc4ccccc4s3)[C@H]12 was -0.339

Reference source for all entries: PubChem BioAssay
